# Experiment Notes: chemical genetic growth profiling, strain panel (AID 1159580);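 also: tested at 20 µM; growth read once vehicle control cultures reached saturation at 30 °C; 1 = growth at the plate median or of vehicle wells; lower values mean less growth of the strain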
# Measurement Setup: S. cerevisiae deletion strains, growth OD, locus YPL241C, strain CIN2, hits give low values
Among all 5,500 compounds or so, about 2,000 (36%) were called active. Not shown: some 18% with an inconclusive outcome. The list shows a part of the results.
Parameter: normalized growth. Scope: all listed entries.

{"columns": ["Compound", "normalized growth"],
 "data": [
  ["CC(C)(C)c1ccc(NC(=O)Cc2cc(F)cc(F)c2)cc1", 0.949],
  ["CCOC(=O)CSC(=S)NCc1ccc(C)cc1", 0.0682],
  ["COc1ccc2c(c1OC)C(=O)O[C@@H]2[C@H]1c2cc3c(cc2CCN1C)OCO3", 1.01],
  ["COc1cc(NC(C)CCCN)c2ncccc2c1 (configuration not stated)", 1],
  ["CC(C)(O)[C@@H]1[C@H]2OC(=O)[C@@H]1[C@]1(O)C[C@H]3O[C@]34C(=O)O[C@H]2[C@]14C", 1.01],
  ["CS(=O)(=O)c1ccc(C2=C(c3ccccc3)C(=O)OC2)cc1", 0.994],
  ["OCc1ccc(-c2nn(Cc3ccccc3)c3ccccc23)o1", 1.02],
  ["CCCc1cc(=O)c2ccc(O)cc2o1", 0.988],
  ["Cc1ccc(C)c(NC(=S)N(CCc2ccccc2)CCc2ccccn2)c1", 1.03],
  ["CCC(=O)Nc1cc(F)ccc1C", 0.89],
  ["CC(C)(C)C(=O)Nc1ccc(F)cc1", 1.01],
  ["CCOC(=O)C(C)(C)Oc1ccc(Cl)cc1", 0.997]
]}
